Ref: patent US11492335B2

- ASSAY_SYSTEM: recombinant human MAO-B (monoamine oxidase-B) (Homo sapiens)
- Construct: purchased Sigma-Aldrich
- Sequence (P27338 whole entry): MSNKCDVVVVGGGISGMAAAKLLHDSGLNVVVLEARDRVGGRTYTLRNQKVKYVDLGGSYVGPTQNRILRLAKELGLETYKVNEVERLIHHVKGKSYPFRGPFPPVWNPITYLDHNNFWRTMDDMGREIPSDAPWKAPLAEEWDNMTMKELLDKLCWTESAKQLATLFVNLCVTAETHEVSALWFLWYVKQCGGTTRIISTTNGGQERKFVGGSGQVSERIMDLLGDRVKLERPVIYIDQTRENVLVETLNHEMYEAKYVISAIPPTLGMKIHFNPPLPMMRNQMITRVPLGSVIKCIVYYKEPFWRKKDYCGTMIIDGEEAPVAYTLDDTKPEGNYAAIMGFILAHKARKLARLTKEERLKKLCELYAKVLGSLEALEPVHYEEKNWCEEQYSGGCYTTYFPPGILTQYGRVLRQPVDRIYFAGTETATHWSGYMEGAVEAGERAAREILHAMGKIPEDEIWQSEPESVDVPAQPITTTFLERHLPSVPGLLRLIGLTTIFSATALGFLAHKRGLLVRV
- EXPERIMENT_DESCRIPTION: Activity on recombinant human MAO-B, Amplex Red method, 1 mM benzylamine substrate
- Assay type: biochemical
- CONDITION_LABEL: 1 mM benzylamine, read-out: Inhibitory Activity (IC50, nM) MAO-B
Counter-ions that a name gives are not always drawn.
MEASURED_QUANTITY: IC50

Data request: Request: IC50, test system recombinant human MAO-B (monoamine oxidase-B) (Homo sapiens), entry NC/C(=C\F)Cn1ncn(-c2ccc(-c3ccc4c(c3)OCO4)cc2F)c1=O [Example 45, hydrochloride]
Data returned: < 10 nM

====

- ASSAY_SYSTEM: recombinant human DAO (diamine oxidase) (Homo sapiens)
- Construct: purchased R&D systems
- EXPERIMENT_DESCRIPTION: Activity on recombinant human DAO, Amplex Red method, 1 mM putrescine substrate
- Type: biochemical
- CONDITION_LABEL: recombinant human DAO, 1 mM putrescine substrate; read-out: Inhibitory Activity (IC50, nM) DAO
Counter-ions that a name gives are not always drawn.
The molecules listed here are annotated with their IC50.
All answers are understood in nM, so give the number only.

Data request: Request: IC50, test system recombinant human DAO (diamine oxidase) (Homo sapiens), entry Cc1ccc(-c2ccc3c(c2)OCO3)nc1-n1cnn(C/C(=C/F)CN)c1=O [Example 213, hydrochloride]
Data returned: 1800

Data request: What would you report for Cc1cc(-c2ccc3c(c2)NC(=O)C3)cnc1-n1cnn(C/C(=C/F)CN)c1=O [Example 151] ?
Data returned: 98

Data request: What would you report for NC/C(=C\F)Cn1ncn(-c2ncc(-c3cccc(-c4nnn[nH]4)c3)s2)c1=O [Example 230] ?
Data returned: 2.7

====

- ASSAY_SYSTEM: recombinant human DAO (diamine oxidase) (Homo sapiens, UniProt P19801)
- Construct: purchased R&D systems
- Sequence (P19801 20-751): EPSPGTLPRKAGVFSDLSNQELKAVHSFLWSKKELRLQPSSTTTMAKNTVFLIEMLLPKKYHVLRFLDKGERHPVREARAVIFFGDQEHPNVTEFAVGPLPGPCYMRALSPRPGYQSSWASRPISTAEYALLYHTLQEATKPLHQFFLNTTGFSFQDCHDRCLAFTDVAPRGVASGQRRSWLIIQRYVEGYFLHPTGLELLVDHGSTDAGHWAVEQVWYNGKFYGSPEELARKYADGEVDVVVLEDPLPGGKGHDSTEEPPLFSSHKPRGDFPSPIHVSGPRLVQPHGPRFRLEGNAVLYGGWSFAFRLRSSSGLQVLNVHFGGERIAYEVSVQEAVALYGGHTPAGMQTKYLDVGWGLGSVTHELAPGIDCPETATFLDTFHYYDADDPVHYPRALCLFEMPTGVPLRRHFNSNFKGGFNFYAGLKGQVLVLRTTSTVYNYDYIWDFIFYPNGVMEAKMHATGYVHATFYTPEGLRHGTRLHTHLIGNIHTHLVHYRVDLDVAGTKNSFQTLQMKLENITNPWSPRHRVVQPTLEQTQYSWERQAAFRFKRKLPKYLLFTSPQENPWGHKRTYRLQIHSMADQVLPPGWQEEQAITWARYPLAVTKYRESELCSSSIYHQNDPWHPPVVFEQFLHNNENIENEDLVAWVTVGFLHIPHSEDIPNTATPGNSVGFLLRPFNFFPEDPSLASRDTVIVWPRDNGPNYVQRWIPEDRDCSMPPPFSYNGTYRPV
- EXPERIMENT_DESCRIPTION: Activity on recombinant human DAO, Amplex Red method, 1 mM putrescine substrate
- Assay type: biochemical
Counter-ions that a name gives are not always drawn.
MEASURED_QUANTITY: pIC50
// scale note: pIC50 = -log10(conc_M); give the bare number

Data request: What does the data say about its pIC50? Entry: NC/C(=C\F)Cn1ncn(-c2cccc(C3=CCNCC3)c2)c1=O [Example 48, dihydrochloride]
Data returned: 9.10

====

- ASSAY_SYSTEM: recombinant human VAP-1 (Homo sapiens)
- Construct: purchased R&D systems
- Sequence (Q16853 1-763): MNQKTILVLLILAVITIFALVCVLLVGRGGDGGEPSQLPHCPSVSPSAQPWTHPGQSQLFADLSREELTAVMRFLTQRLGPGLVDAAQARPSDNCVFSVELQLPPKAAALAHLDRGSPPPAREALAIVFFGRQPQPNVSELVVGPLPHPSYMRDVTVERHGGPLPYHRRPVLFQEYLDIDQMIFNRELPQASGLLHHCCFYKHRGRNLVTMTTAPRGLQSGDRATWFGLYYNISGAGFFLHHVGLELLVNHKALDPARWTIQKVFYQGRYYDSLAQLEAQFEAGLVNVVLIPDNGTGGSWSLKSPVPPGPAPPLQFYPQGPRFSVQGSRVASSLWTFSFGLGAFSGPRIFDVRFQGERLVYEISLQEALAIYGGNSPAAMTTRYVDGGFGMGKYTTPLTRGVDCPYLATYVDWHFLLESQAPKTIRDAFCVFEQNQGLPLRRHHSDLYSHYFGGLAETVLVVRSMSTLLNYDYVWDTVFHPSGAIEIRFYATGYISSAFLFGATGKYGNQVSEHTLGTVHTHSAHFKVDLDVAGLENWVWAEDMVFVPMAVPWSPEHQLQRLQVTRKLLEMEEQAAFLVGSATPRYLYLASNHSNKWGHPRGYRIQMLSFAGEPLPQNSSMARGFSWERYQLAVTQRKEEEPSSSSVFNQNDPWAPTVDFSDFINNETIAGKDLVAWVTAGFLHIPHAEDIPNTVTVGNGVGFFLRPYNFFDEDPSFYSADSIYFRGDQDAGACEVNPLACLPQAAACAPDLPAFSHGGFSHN
- EXPERIMENT_DESCRIPTION: Activity on recombinant human VAP-1, Amplex Red HRP-coupled hydrogen peroxide assay, benzylamine substrate
- Type: biochemical
- CONDITION_LABEL: recombinant human VAP-1, benzylamine substrate, 30 min preincubation at 37° C.; read-out: Inhibitory Activity (IC50, nM) human VAP-1
Counter-ions that a name gives are not always drawn.
MEASURED_QUANTITY: IC50

Examples with answers:
[
  {
    "MOLECULE": "Cc1cc(-c2ccc(-c3noc(C4CC4)n3)cc2)cnc1-n1cnn(C/C(=C/F)CN)c1=O [Example 141, hydrochloride]",
    "IC50": "0.88 nM"
  },
  {
    "MOLECULE": "Cc1c(-c2ccc(S(C)(=O)=O)cc2)cccc1-n1cnn(C/C(=C/F)CN)c1=O",
    "IC50": "4.7 nM"
  },
  {
    "MOLECULE": "Cc1cc(-c2ccc(N3CCOCC3)nc2)ncc1-n1cnn(C/C(=C/F)CN)c1=O",
    "IC50": "0.89 nM"
  }
]

Data request: What does the data say about its IC50? Entry: NC/C(=C\F)Cn1ncn(-c2cccc(-c3cccc4[nH]ccc34)c2)c1=O [Example 98, hydrochloride]
Data returned: 4.7 nM

====

- ASSAY_SYSTEM: recombinant human VAP-1 (Homo sapiens, UniProt Q16853)
- Construct: purchased R&D systems
- EXPERIMENT_DESCRIPTION: Activity on recombinant human VAP-1, Amplex Red HRP-coupled hydrogen peroxide assay, benzylamine substrate
- Format: biochemical
- CONDITION_LABEL: recombinant human VAP-1, benzylamine substrate; read-out: Inhibitory Activity (IC50, nM) human VAP-1
Structures can show the parent of a compound that is named as a salt.
Returns: string. Value is 1 (yes) if measured IC50 is below 0.6 nM, and 0 (no) if it is greater than or equal to it.

Data request: Please determine if NC/C(=C\F)Cn1ncn(-c2cccc(-c3ccc4nonc4c3)n2)c1=O is below 0.6 nM in terms of IC50.
Data returned: 0 (no)

Data request: What would you report for NC/C(=C\F)Cn1ncn(-c2cnc(-c3cccc(-c4nc[nH]n4)c3)cn2)c1=O ?
Data returned: 0 (no)

Data request: What would you report for NC/C(=C\F)Cn1ncn(-c2ccnc(-c3ccc(C(=O)N4CCOCC4)cc3)c2)c1=O [Example 208, hydrochloride] ?
Data returned: 0 (no)

Data request: What would you report for CC(C)c1nc(-c2cccc(-c3cc(-n4cnn(C/C(=C/F)CN)c4=O)ccn3)c2)no1 [Example 206, hydrochloride] ?
Data returned: 0 (no)

====

- ASSAY_SYSTEM: recombinant human DAO (diamine oxidase) (Homo sapiens)
- Construct: purchased R&D systems
- EXPERIMENT_DESCRIPTION: Activity on recombinant human DAO, Amplex Red method, 1 mM putrescine substrate
- Assay type: biochemical
- CONDITION_LABEL: recombinant human DAO, 1 mM putrescine substrate; read-out: Inhibitory Activity (IC50, nM) DAO
- Method: The compounds according to the present technology were evaluated in terms of activity on recombinant human VAP-1 (R&D systems) by measuring the level of hydrogen peroxide in horseradish peroxidase (HRP)-coupled reaction using Amplex Red Hydrogen Peroxide Assay Kit (Molecular Probes, Invitrogen, USA). […] The inhibitory effect of the compounds was measured as a decrease (%) in the signal rate as compared to the control group without any inhibitor (only diluted DMSO). […]
The compounds listed here are annotated with their IC50.
All answers are understood in nM, so give the number only.

[
  {
    "SMILES_ENTRY": "NC/C(=C\\F)Cn1ncn(-c2cccc(C#Cc3cnc4c(c3)NCCO4)n2)c1=O",
    "MEASURED_QUANTITY": "IC50",
    "MEASURE_UNIT": "nM",
    "DATA_VALUE": 21
  }
]

Next item in the queue.
Data request: What does the data say about its IC50? Entry: NC/C(=C\F)Cn1ncn(-c2cccc(C#Cc3cnc4c(c3)NC(=O)CO4)n2)c1=O
Data returned: 1.3
